System: Human immunodeficiency virus 1
Protocol Summary: Antiviral activity against wild-type HIV1 3B infected in human MT4 cells assessed as inhibition of virus-induced cytopathic effect after 5 days in presence of 50 % of human serum by MTT assay
Format: functional, organism-based
Run Conditions: Human immunodeficiency virus 1, 3B, MT4, 120 h
Assay Endpoint: pEC50
Bear in mind: pEC50 is minus log10 of a mol/L concentration; give just that figure.

Briefly, pEC50 measured for CSC[C@H](NC(=O)COc1cccc2cnccc12)C(=O)N[C@@H](Cc1ccccc1)[C@H](O)C(=O)N1CSC[C@H]1C(=O)NC(C)(C)C : 5.54

Now examine the next entry.
Briefly, pEC50 measured for Cc1ccccc1CNC(=O)[C@H]1N(C(=O)[C@@H](O)[C@H](Cc2ccccc2)NC(=O)c2cccc(O)c2C)CSC1(C)C : 6.94

----------
Assay Target: Protease (Human immunodeficiency virus 1) (UniProt Q9YQ12)
Protocol Summary: Inhibition of recombinant HIV1 protease at 1 nM using H-Lys-Ala-Arg-Val-Tyr-Phe(p-NO2)-Glu-Ala-Nle-NH2 as substrate preincubated for 5 mins followed by substrate addition measured after 3 hrs by fluorescence-based assay
Assign YES whenever inhibition does not fall below 90%; assign NO whenever it does.

Use the examples below as a reference point.
Task item: Is inhibition for CN(C)c1cccc(OCC(=O)N[C@H](C(=O)N[C@@H](Cc2ccccc2)[C@H](O)C(=O)N2CSC(C)(C)[C@H]2C(=O)N[C@H]2c3ccccc3C[C@H]2O)[C@H]2CCOC2)c1 at or above 90%?
Reply: YES

Task item: Is inhibition for C=CCNC(=O)[C@H]1N(C(=O)[C@@H](O)[C@H](Cc2ccccc2)NC(=O)[C@@H](NC(=O)COc2cccc(N(C)C)c2)[C@H]2CCOC2)CSC1(C)C at or above 90%?
Reply: YES

Could you now look at the following compound, please?
Task item: Is inhibition for CN(C)c1cccc(OCC(=O)N[C@H](C(=O)N[C@@H](Cc2ccccc2)[C@H](O)C(=O)N2CSC(C)(C)[C@H]2C(=O)NC/C=C\CO)[C@H]2CCOC2)c1 at or above 90%?
Reply: YES

----------
Entries annotated with measured pEC50
Tested on: Human immunodeficiency virus 1
Protocol Summary: Antiviral activity against wild-type HIV1 pNL4-3 infected in human MT4 cells assessed as inhibition of virus-induced cytopathic effect after 5 days in absence of human serum by MTT assay
Type: functional, organism-based
Run Conditions: Human immunodeficiency virus 1, pNL4-3, MT4, 120 h
Bear in mind: pEC50 is minus log10 of a mol/L concentration; give just that figure.

Field: example entries. Status: answers known.
Briefly, pEC50 measured for CN(C)c1cccc(OCC(=O)N[C@H](C(=O)N[C@@H](Cc2ccccc2)[C@H](O)C(=O)N2CSC(C)(C)[C@H]2C(=O)N[C@H]2c3ccccc3C[C@H]2O)[C@H]2CCOC2)c1 : 8.40

Briefly, pEC50 measured for Cc1cccc(C)c1CNC(=O)[C@H]1N(C(=O)[C@@H](O)[C@H](Cc2ccccc2)NC(=O)[C@@H](NC(=O)c2cc(=O)c3ccccc3o2)[C@H]2CCOC2)CSC1(C)C : 8.30

Briefly, pEC50 measured for Cc1cccc(C)c1CNC(=O)[C@H]1N(C(=O)[C@@H](O)[C@H](Cc2ccccc2)NC(=O)[C@@H](NC(=O)COc2cccc(Nc3ccccc3)c2)[C@H]2CCOC2)CSC1(C)C : 8.30

Briefly, pEC50 measured for COc1cccc2cc(C(=O)N[C@@H](CC(N)=O)C(=O)N[C@@H](Cc3ccccc3)[C@H](O)C(=O)N3CSC(C)(C)[C@H]3C(=O)NCc3c(C)cccc3C)oc12 : 7.22

Further cases:
Briefly, pEC50 measured for Cc1ccccc1CNC(=O)[C@H]1N(C(=O)[C@@H](O)[C@H](Cc2ccccc2)NC(=O)[C@@H](NC(=O)COc2cccc3cnccc23)[C@H]2CCOC2)CSC1(C)C : 7.68
